This section presents molecules with their documented T/C values.
- Test system: P388 leukemia ip, CD2F1 mice, survival T/C
- Experiment Notes: NCI In Vivo Anticancer Drug Screen. Data for tumor model P388 Leukemia (intraperitoneal) in CD2F1 (CDF1) mice
- Conditions Used: endpoint: median survival time; dose: 100.0 mg/kg/injection; schedule: Q01DX001 (ip); vehicle: saline; higher = longer survival
- Protocol: The antitumor activity of compounds was measured in mice bearing transplantable tumors. Survival or tumor size were measured and the results are expressed as the measurement made in the treated group (T) divided by the measurement made in the vehicle treated control group (C). The tumor model used in this assay is P388 Leukemia (intraperitoneal) in CD2F1 (CDF1) mice
Toxic doses and inconclusive results are not listed.

Below, 3 molecules whose answers are already recorded.
# Molecule, Reported Result
measured = [
    ("Cc1ccc(NC(=O)CCCCC(C)NCC(O)c2ccc(O)c(O)c2)cc1 (stereo not given)", "97 % of control"),
    ("CC(=O)CN1CCSC1=N", "97 % of control"),
    ("CCOC(=O)NN(C(=O)OCC)C(C)(C)C(C)=O", "100 % of control"),
]

Lookup: Return reported T/C for target or system P388 leukemia ip, CD2F1 mice, survival T/C, item CS(=N)(=O)CCC(N)C(=O)O (stereo not given) (tested in a mixture with another compound) .
Found: 105 % of control

Lookup: Return reported T/C for target or system P388 leukemia ip, CD2F1 mice, survival T/C, item Cn1c(-c2ccccc2)c(C(=O)CC(=O)CN2CCOCC2)c2ccccc21 .
Found: 98 % of control

* * *

- Tested on: P388 leukemia ip, CD2F1 mice, survival T/C
- Experiment Notes: NCI In Vivo Anticancer Drug Screen. Data for tumor model P388 Leukemia (intraperitoneal) in CD2F1 (CDF1) mice
- Conditions Used: endpoint: median survival time; dose: 100.0 mg/kg/injection; schedule: Q01DX009 (ip); vehicle: distilled water + Tween-80
- Experimental: The antitumor activity of compounds was measured in mice bearing transplantable tumors. Survival or tumor size were measured and the results are expressed as the measurement made in the treated group (T) divided by the measurement made in the vehicle treated control group (C). The tumor model used in this assay is P388 Leukemia (intraperitoneal) in CD2F1 (CDF1) mice
Inconclusive results and toxic doses are left out. How the source made its calls: active means survival T/C of 150% or more; inactive means T/C below 125% in these data.
Parameter call: string, one of TRUE for active, FALSE for inactive

Some entries whose results are on file:
# Compound, Discrete Label
measured = [
    ("CC(C)CNC(=O)OCc1c(COC(=O)NCC(C)C)c(-c2ccc(Cl)c(Cl)c2)n2c1CCC2", "TRUE"),
    ("COc1cc2ccnc(/C=N\\O)c2cc1OC", "FALSE"),
    ("Cc1nc(C(=O)OCc2ccccc2)cc(OCc2ccccc2)c1C", "FALSE"),
    ("O=C(Nc1ccc(C(=O)O)cc1)Nc1nccs1", "TRUE"),
]

Lookup: What was the test verdict on c1ccc(-c2c[s+]c(-c3ccccc3)s2)cc1 ?
Found: FALSE

Lookup: What was the test verdict on CCOC(=O)C1=C(c2ccccc2)C2OC1C(COC(=O)NC)=C2COC(=O)NC (stereo unspecified) ?
Found: FALSE

* * *

- Test system: P388 leukemia ip, CD2F1 mice, survival T/C
- Experiment Notes: NCI In Vivo Anticancer Drug Screen. Data for tumor model P388 Leukemia (intraperitoneal) in CD2F1 (CDF1) mice
- Conditions Used: endpoint: median survival time; dose: 50.0 mg/kg/injection; schedule: Q01DX009 (ip); vehicle: Klucel (hydroxypropylcellulose) (HPC); higher = longer survival
- Experimental: The antitumor activity of compounds was measured in mice bearing transplantable tumors. Survival or tumor size were measured and the results are expressed as the measurement made in the treated group (T) divided by the measurement made in the vehicle treated control group (C). The tumor model used in this assay is P388 Leukemia (intraperitoneal) in CD2F1 (CDF1) mice
Toxic doses and inconclusive results are not listed.
Measurement Type: T/C

Below, 2 compounds whose answers are already recorded.
# Compound, T/C
measured = [
    ("CN(C)CCC(=O)c1ccc(Cl)c(Cl)c1", "107 % of control"),
    ("O=C(c1ccc(O)cc1)c1ccc(C(=O)c2ccc(O)cc2)cc1", "99 % of control"),
]

Lookup: Quickly give me recorded T/C for Cc1ccc(S(=O)(=O)N/N=C(\C(=O)O)c2ccccc2)cc1
Found: 96 % of control

Lookup: Quickly give me recorded T/C for COc1ccc(C=NC#N)cc1
Found: 101 % of control

Lookup: Quickly give me recorded T/C for Cc1ccc(NC(=O)NCCCN2CCOCC2)cc1NC(=O)NCCCN1CCOCC1
Found: 104 % of control

Lookup: Quickly give me recorded T/C for COc1nc(C(O)C2OC(C)(C)OCC2O)[nH]c1C#N (centres undefined)
Found: 106 % of control

Lookup: Quickly give me recorded T/C for Cc1cnc(C=O)c2cccc([N+](=O)[O-])c12
Found: 105 % of control

Lookup: Quickly give me recorded T/C for CCCCCNC(=S)N/N=C(\C)c1ccccn1
Found: 106 % of control

Lookup: Quickly give me recorded T/C for Cc1ccc(Cc2nnc(C)c3c(C)[nH]nc23)cc1
Found: 100 % of control
